The reported numbers originate from the supplement of paper PMC9170038.

Test system: MS2 coat protein
protocolDetails: apparent KD of MS2 coat protein; designed switch direction (-1 OFF switch, 1 ON switch): 1; higher = weaker reporter binding
assayConditions: input ligand: FMN 200 uM
Listed next: entries and their corresponding apparent KD of MS2 coat protein.
The answer should read as a number with its unit following.

Here's what some known entries look like.
GCUACCAUUGAAGCCUACAUGAGGAUCACCCAUGUAUGUAGGCAGGAUAUCGAUUGCAAAGCGAUCGAGAAGGGCUUAGGUAGC [Mat - Same State NG 3 - JL Mod - D90] (Eterna round: R96, puzzle: Same State NG 3) | 0.0308 µM
CUGCACCGUGGAGGAUAUGGGCUGAGGCCAGGACAACCCUGGCCAACAUGAGGAUCACCCAUGUCCCAGAAGGCCACAGUGCUA [Zaenmaxe] (Eterna round: R96, puzzle: Same State NG 2) | 0.0151 µM

Please look up its apparent KD of MS2 coat protein: AGCUAUUAAUCAGGAUAUAGUGACAUGAGGAUCACCCAUGUAUUGAUGAUUAAAUGUGGUCGCCGCUAGAAGGGAUUACUAACA [SameState NG2 #46] (Eterna round: R96, puzzle: Same State NG 2)
0.0352 µM

Please look up its apparent KD of MS2 coat protein: GUACAAAUCAUAGGAUAUGGGCGGGAAUGCCGUCCAGAAGGAUGAACAUGAGGAUCACCCAUGUCCGGCCACAAAUACGCGGCC [Bientela] (Eterna round: R96, puzzle: Same State NG 1)
0.0723 µM

Please look up its apparent KD of MS2 coat protein: AUUUUUAAUGCAGGAUAUGAUUAACAUGAGGAUCACCCAUGUGGUGUUGUGAGUAAGGAGAGUGAUCAGAAGGGCAAUUUUUUU [JMF's solution 78] (Eterna round: R96, puzzle: Same State NG 2)
0.731 µM

---

System: MS2 coat protein
protocolDetails: apparent KD of MS2 coat protein; designed switch direction (-1 OFF switch, 1 ON switch): 1; higher = weaker reporter binding
assayConditions: input ligand: FMN 200 uM
experimentalEndpoint: apparent KD of MS2 coat protein (nM)
Expressed in nM, but write only the number.

Here's what some known entries look like.
AAUUAAGAUCAAGGAUAUCACGUCGUUUAGACGUGAGAAGGUGAUCCAUACAUGAGGAUCACCCAUGUAUAACAUGAAUUAAUU [SSNG1/8-B3] (Eterna round: R96, puzzle: Same State NG 1) | 180
GGUAAGAAUUAAGGAUAUCGAGUACAUAUGUUUAACAUGAGGAUCACCCAUGUGGGUUGCGGUAUCGAGAAGGUAAAAUAAAAG [Mat - same State NG 2 - JL mod - D65] (Eterna round: R96, puzzle: Same State NG 2) | 53
CCGCUCUAUGGAGGAUAUGGGCCUGCCCGGGAUAACGGGCCUAAUACAUGAGGAUCACCCAUGUCCCAGAAGGCCGCUAGAGCC [Errexexe] (Eterna round: R96, puzzle: Same State NG 2) | 120
CCUUAGUACAAUUUAGAUCUACAUGAGGAUCACCCAUGUACUGAGGAUAUCAGCUCGAAUAGAGCUGAGAAGGCAGAAGUACUU [SSNG3/7-A1] (Eterna round: R96, puzzle: Same State NG 3) | 60.3
ACAUGAGACUAAGGAUAUGGUGUACCUACAUGUGACAUGAGGAUCACCCAUGUGGUAAGUAUGACUCAGAAGGUAGAGAUAUGU [Equivalance 75 - Jieux - Same State NG 2] (Eterna round: R96, puzzle: Same State NG 2) | 37.9

Please look up its apparent KD of MS2 coat protein: CGAGCCGGCACUGAGGAUAUUCAUAUUUAAACAUGAGGAUCACCCAUGUAGGCCAGAAGGCCUUGGGAGAAGGCAGGUCGGCUCC [salish99_ss2_r3_080] (Eterna round: R96, puzzle: Same State 2)
22.3
